Reference source for all entries: ChEMBL document CHEMBL2390878

Target: Amine oxidase [copper-containing] 3 (Homo sapiens, UniProt Q16853)
Sequence (Q16853 whole entry): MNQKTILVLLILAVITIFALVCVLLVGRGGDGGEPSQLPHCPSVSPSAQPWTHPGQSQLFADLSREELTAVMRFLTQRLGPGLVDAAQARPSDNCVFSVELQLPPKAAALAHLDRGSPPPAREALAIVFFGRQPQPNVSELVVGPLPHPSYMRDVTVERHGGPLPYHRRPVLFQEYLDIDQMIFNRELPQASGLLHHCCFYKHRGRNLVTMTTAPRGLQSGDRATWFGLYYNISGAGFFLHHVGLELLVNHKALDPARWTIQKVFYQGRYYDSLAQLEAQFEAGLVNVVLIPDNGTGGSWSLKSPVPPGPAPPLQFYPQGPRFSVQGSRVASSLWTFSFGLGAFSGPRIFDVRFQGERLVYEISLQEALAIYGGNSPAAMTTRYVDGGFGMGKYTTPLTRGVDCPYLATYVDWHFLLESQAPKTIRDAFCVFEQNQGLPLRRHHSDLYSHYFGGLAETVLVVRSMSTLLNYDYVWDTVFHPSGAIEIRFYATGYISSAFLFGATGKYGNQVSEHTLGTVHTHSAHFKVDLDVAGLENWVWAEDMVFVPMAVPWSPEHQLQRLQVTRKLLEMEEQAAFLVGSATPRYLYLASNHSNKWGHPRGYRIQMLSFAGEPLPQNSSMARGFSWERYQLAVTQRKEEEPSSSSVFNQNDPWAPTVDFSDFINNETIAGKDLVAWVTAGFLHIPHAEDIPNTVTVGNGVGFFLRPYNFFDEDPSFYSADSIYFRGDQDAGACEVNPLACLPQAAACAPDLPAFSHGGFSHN
Assay: Inhibition of human VAP-1 expressed in CHO cells using [14C]-benzylamine as substrate preincubated for 30 mins prior to substrate addition measured after 1 hr by scintillation spectrometric analysis
pIC50: −log10 of the molar value.
Reported pIC50 values for the following compounds.

Recorded pIC50 of `N=C(N)Nc1ccccc1` , please.
< 4.00

Recorded pIC50 of `NCc1nc2ccccc2[nH]1` , please.
< 4.00

Recorded pIC50 of `Nc1ncc[nH]1` , please.
< 4.00

Recorded pIC50 of `Cn1c(N)nc2ccccc21` , please.
< 4.00

* * *

Target: Amine oxidase [copper-containing] 3 (Rattus norvegicus)
Sequence (O08590 whole entry): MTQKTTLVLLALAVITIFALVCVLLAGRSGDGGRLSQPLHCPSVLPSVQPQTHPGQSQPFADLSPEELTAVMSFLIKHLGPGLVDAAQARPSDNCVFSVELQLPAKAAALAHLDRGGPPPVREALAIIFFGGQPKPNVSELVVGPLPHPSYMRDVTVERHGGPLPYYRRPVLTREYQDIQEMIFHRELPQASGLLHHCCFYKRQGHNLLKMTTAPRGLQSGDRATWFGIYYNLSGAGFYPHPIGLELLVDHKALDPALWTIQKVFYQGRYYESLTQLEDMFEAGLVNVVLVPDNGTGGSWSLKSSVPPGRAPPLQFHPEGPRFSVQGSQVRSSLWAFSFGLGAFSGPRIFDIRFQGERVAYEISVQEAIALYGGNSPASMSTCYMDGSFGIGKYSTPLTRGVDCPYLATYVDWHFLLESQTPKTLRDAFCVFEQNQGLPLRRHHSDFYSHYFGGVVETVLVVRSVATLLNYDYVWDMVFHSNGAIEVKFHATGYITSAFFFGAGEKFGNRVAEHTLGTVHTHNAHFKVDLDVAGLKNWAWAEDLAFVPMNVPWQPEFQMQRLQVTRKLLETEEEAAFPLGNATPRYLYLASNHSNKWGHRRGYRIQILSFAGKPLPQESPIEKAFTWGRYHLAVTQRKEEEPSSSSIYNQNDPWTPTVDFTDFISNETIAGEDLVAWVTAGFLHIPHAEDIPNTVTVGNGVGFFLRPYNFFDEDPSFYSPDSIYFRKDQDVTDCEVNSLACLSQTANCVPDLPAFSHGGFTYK
Experiment: Inhibition of rat VAP-1 expressed in CHO cells using [14C]-benzylamine as substrate preincubated for 30 mins prior to substrate addition measured after 1 hr by scintillation spectrometric analysis
measured_property: IC50 (µM)

Cc1cccc2[nH]c(N)nc12	1

[P] N=C(N)Nc1ccccc1
[Q] CC(=O)Nc1nc(CCc2ccc(-c3c[nH]c(N)n3)cc2)cs1
I would appreciate it if you could say which entry, P or Q , has the lower IC50 value. Lab note: record the label of whichever item you select.
Q
(Q: 0.15 µM, P: 78 µM)

[I] Nc1nc2ccccc2[nH]1
[II] Cc1ccc2nc(N)[nH]c2c1
Choose between I and II : whose measured IC50 value is numerically larger? Lab note: record the label of whichever item you select.
II
(II: 9.3 µM, I: 1 µM)

[1] Nc1ncc(CCc2ccccc2)[nH]1
[2] Cn1c(N)nc2ccccc21
I would appreciate it if you could say which entry, 1 or 2 , has the lower IC50 value. Lab note: record the label of whichever item you select.
1
(1: 4.8 µM, 2: 80 µM)

[A] CC(=O)Nc1nc(CCc2ccc(Cc3c[nH]c(N)n3)cc2)cs1
[B] CC(=O)Nc1nc(CCc2ccc(CCc3c[nH]c(N)n3)cc2)cs1
[C] Nc1ncc[nH]1
[D] Nc1cc2ccccc2[nH]1
Rank entries according to their IC50, from the largest number down. Provide your answer as the labels ordered per the instruction.
C, D, B, A
(C: 90 µM, D: 63 µM, B: 0.018 µM, A: 0.0051 µM)
